target: hCB2 (Homo sapiens, UniProt P34972); construct: expressed in transfected cells; host or cells: HEK Flp-in; assay: Comparison of efficacy/potency and operational-model bias analysis between hCB2 pathways, reference CP 55,940; assay type: cell-based; settings: 10^ΔΔlogR, relative to CP 55,940
Sequence (P34972 whole entry): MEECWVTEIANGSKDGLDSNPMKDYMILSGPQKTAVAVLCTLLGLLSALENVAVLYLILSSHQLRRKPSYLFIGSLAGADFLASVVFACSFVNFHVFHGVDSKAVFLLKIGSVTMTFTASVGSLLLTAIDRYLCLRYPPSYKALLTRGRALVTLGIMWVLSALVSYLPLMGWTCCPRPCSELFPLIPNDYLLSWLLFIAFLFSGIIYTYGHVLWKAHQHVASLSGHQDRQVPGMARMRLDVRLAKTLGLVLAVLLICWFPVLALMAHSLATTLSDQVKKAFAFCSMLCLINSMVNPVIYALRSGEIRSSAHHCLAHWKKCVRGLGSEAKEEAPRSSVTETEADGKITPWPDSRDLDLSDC
measurement kind: cAMP – pERK Bias factor

>>> print(df.to_string())
                                   compound                         assay_system         measurement_kind  recorded_measurement
0  CCOc1nc(NC23CC4CC(CC(C4)C2)C3)nc(N2CCN(CCOCCOCCNC(C)=O)CC2)n1  hCB2 (Homo sapiens, UniProt P34972)  cAMP – pERK Bias factor                   1.6
1  CCOc1nc(NC23CC4CC(CC(C4)C2)C3)nc(N2CCN(CCOCCOCCNC(=O)OC(C)(C)C)CC2)n1  hCB2 (Homo sapiens, UniProt P34972)  cAMP – pERK Bias factor                   2.4
2  CCOc1nc(NC23CC4CC(CC(C4)C2)C3)nc(N2CCN(CCF)CC2)n1  hCB2 (Homo sapiens, UniProt P34972)  cAMP – pERK Bias factor                   1.6
3  CCOc1nc(NC23CC4CC(CC(C4)C2)C3)nc(N2CCNCC2)n1  hCB2 (Homo sapiens, UniProt P34972)  cAMP – pERK Bias factor                  20.3
4  CCCCCCC(C)(C)c1ccc([C@@H]2C[C@H](O)CC[C@H]2CCCO)c(O)c1 [CP 55,940, reference compound]  hCB2 (Homo sapiens, UniProt P34972)  cAMP – pERK Bias factor                   1.0
5  CCOc1nc(NC23CC4CC(CC(C4)C2)C3)nc(N2CCN(C)CC2)n1  hCB2 (Homo sapiens, UniProt P34972)  cAMP – pERK Bias factor                   1.6
